Numbers sourced from PubChem BioAssay (NCI).

# Tested on: MDA-MB-468 breast
# assay-overview: NCI-60 one-dose screen, 48 h (100 = growth as untreated, 0 = no growth, -100 = all killed)
# stated-conditions: 10 µM unless noted
# Procedure: Growth inhibition of the MDA-MB-468 human Breast tumor cell line is measured as a screen for anti-cancer activity. Cells are grown in 96 well plates and exposed to the test compound for 48 hours. Compounds are tested at a single concentration, which is 10^-5 M for most compounds. The reported endpoint is percent growth (GI% or GIPRCNT), where numbers from 0 - 100% represent growth inhibition, and numbers from -100% - 0 represent cell death. […]
The panel holds about 83,000 compounds, 20% with a hit somewhere; the sample as a whole holds those more often.
measured-parameter: growth (%)
The reply should contain only the number, in %.

Consider the reported growth for these compounds:
[[record]]
compound = "O=C(N=c1n(-c2ccccc2)nc2n1CCN2C1=NCCN1C(=O)c1ccc(Cl)cc1)c1ccc(Cl)cc1"
target_or_test_system = "MDA-MB-468 breast"
numeric_readout = 73.6

[[record]]
compound = "CN1CCN(Cc2ccc(NC(=O)c3cncc(C#Cc4cnc5ccc(OCC(C)(C)O)nn45)c3)cc2C(F)(F)F)CC1"
target_or_test_system = "MDA-MB-468 breast"
numeric_readout = -40.2

[[record]]
compound = "COc1cc2c3c(n(C4CCN(C)CC4)c(=O)c2cc1OC)-c1cc2c(cc1C3=O)OCO2"
target_or_test_system = "MDA-MB-468 breast"
numeric_readout = 31.6

[[record]]
compound = "O=S(=O)(NCCCNc1nccc(-c2[nH]c(-c3ccccc3)nc2-c2ccc(F)c(O)c2)n1)c1ccccc1"
target_or_test_system = "MDA-MB-468 breast"
numeric_readout = 88.3

[[record]]
compound = "c1ccc(-c2nc(N3CCOCC3)c3c4c(sc3n2)CCCCCC4)nc1"
target_or_test_system = "MDA-MB-468 breast"
numeric_readout = 57.4

[[record]]
compound = "O=C(CSc1nnc(-c2ccc(NC(=O)c3cccnc3)cc2)o1)N[C@@H](Cc1ccc(O)cc1)C(=O)O"
target_or_test_system = "MDA-MB-468 breast"
numeric_readout = 110


Looking for the measured growth of `COc1cc2c(c(OC)c1OC)C(=O)/C(=C/c1cc(C)c(O)c(C)c1)S2` , can you help?
5.19

Please report the recorded growth for `Cc1c(CC(=O)Nc2ccccc2)nnn1-c1ccccc1` .
117

Sample `CC(C)(C)OC(=O)N1CCc2c(sc3ncnc(N/N=C/c4ccc(Br)cc4)c23)C1` — what was its growth?
24.9

Tell me the measured growth of `O=C(CN1CCOCC1)Nc1ccc(-c2nc3ccccc3s2)cc1` , please.
-6.69

GET /values?readout=growth&item= `O=C(Nc1ccc(F)cc1)c1ccccc1`
98.3

Name the recorded growth for COc1cc(C2C(C#N)=C(N)OC3=C2C(=O)c2ccccc2C3=O)cc(OC)c1OC (stereo unspecified) .
42.4

Need growth of `O=C1Nc2ccc(Br)cc2C1=O` , thanks.
109
